Test system: CCRF-CEM leukemia
assay overview: NCI-60 one-dose screen, 48 h
conditions: 10 µM unless noted
About 83,000 compounds went through this panel and 20% of them were active in at least one assay; those are over-represented in the sample as a whole. Activity calls are given as the source filed them. Rule for the calls: active = growth percent below 10; inactive = the rest.
Labels: label 1 (active), label 0 (inactive)

compound	qualitative label
CCOC(=O)c1c(C(=O)c2cn(C)c3ccc(Br)cc23)c(-c2cn(C)c3ccc(Br)cc23)n(NC(=O)OC(C)(C)C)c1C	label 0
COc1cc(-c2cncn2-c2ccc(-c3nc4ccc(F)cc4s3)cc2)ccc1F	label 0
O=C(COc1ccc(-c2nc3cc(Cl)c(Cl)cc3[nH]2)cc1)N=Nc1c(O)[nH]c2ccc(Cl)cc12	label 0
COc1ccc(-c2nc3cc(C(=O)NCc4ccccc4)ccc3n2C2CCCCC2)cc1	label 0
Cc1ccc(C[P+](c2ccccc2)(c2ccccc2)c2ccccc2)cc1	label 1
CCOC(=O)C1=C(c2ccccc2)N=C2SC=C(c3ccc(Cl)cc3)N2C1c1ccc(Cl)cc1 (stereo unspecified)	label 0
S=c1sc2c(Cl)nc(-c3cccnc3)nc2n1-c1ccccc1	label 1
COc1cc2c(cc1OCCCN1CCN(CCCOc3cc4c(cc3OC)C(=O)N3CCC[C@H]3C=N4)CC1)C=CC(C)(C)O2	label 1
CCOC(=O)C1=C(c2ccccc2)N=C2SC=C(c3ccc(Cl)cc3)N2C1c1ccc(Br)cc1 (stereo unspecified)	label 0
Nc1nc2ccccc2c2c(=O)c3cccc(Cl)c3sc12	label 0
COc1ccc(/C=C(\C#N)n2nnc3ccc(Cl)cc32)cc1	label 0
O=C(Nc1cccc(-c2ccc(N3CCOCC3)nn2)c1)Nc1cccc(C(F)(F)F)c1	label 0
CCCCCN1C(=O)/C(=c2\sc3n(c2=O)C2C(NN=3)N(CC)C(=O)N2CC)c2ccccc21 (stereo unspecified)	label 1
Oc1ccc(Cl)cc1/C=N\NC(=S)N/N=C/c1cc(Cl)ccc1O	label 1
COc1ccc(/C=C(\C#N)n2nnc3cc(F)c(F)cc32)cc1	label 0
COc1ccc(/C=C/C(=O)c2cc3c(N)c(C(=O)Nc4cccc5ccccc45)sc3nc2C)cc1	label 0
O=C(O)CCCN1C(=O)/C(=C/c2cn(-c3ccccc3)nc2-c2ccc([N+](=O)[O-])cc2)SC1=S	label 0
COc1c(B(O)O)cccc1-c1cc(C)c2c(ccc3[nH]ncc32)n1	label 0
CCCCNCCCCCNc1cc(OC)cc2cccnc12	label 0
CCOCCNC1=C(Cl)C(=O)c2ccccc2C1=O	label 0
CCc1ncnc2c1ccn2C(C)c1ccc(OC)c(F)c1 (stereo unspecified)	label 0

---

In this section, each of the molecules is paired with its reported growth.
Tested on: CCRF-CEM leukemia
assay overview: NCI-60 one-dose screen, 48 h (100 = growth as untreated, 0 = no growth, -100 = all killed)
conditions: 10 µM unless noted
About 83,000 compounds went through this panel and 20% of them were active in at least one assay; those are over-represented in the sample as a whole.

molecule	target or test system	result unit	growth
O=C(/C=C/c1cn(-c2ccccc2)nc1-c1ccc(Cl)cc1)c1ccc(F)cc1	CCRF-CEM leukemia	%	40
COc1ccc(NC(=O)c2sc3nc(C)c(C(=O)/C=C/c4ccccc4)cc3c2N)cc1	CCRF-CEM leukemia	%	3.56
COc1ccc(-c2nn(-c3cccc(Cl)c3)cc2-c2cc(-c3ccc(Br)cc3)nc(N)n2)cc1	CCRF-CEM leukemia	%	92.7
COc1ccc2c(c1)N(CCO)C1=C(C(=O)OC1)C2c1cccc(F)c1 (configuration not stated)	CCRF-CEM leukemia	%	9.38
CCCCCCCCCCC(CN(CC)CC)C(O)c1ccccc1 (configuration not stated)	CCRF-CEM leukemia	%	4.36
OCCn1cc(-c2nc(-c3c[nH]c4ncccc34)cs2)c2cc(F)ccc21	CCRF-CEM leukemia	%	56
N#Cc1c(-c2ccccc2)cc(-c2ccccc2)n(CCCC(=O)Nc2ccccc2N)c1=O	CCRF-CEM leukemia	%	56.3
